target: factor VII/VIIa in the binary complex with tissue factor (Homo sapiens); construct: purified human factor VII (1 nM), purified as described by Fair, D; from tissue; TF endogenous on J82 cells (ATCC HTB1); assay: linked enzyme chromogenic assay of factor X activation (S2222) with factor VII and TF positive J82 cells; type: biochemical; conditions: peptidyl chloromethyl ketones, Table 3
Non-standard residues stand in square brackets, D forms with d. Residues, ends and D or L forms follow the SMILES beside them. *: point of attachment. Dansyl = CN(C)c1cccc2c(S(=O)(=O)*)cccc12; Tos = Cc1ccc(S(=O)(=O)*)cc1; CH2Cl = ClC*
Listed compounds paired with reported Ki 5
Respond with a number, then the unit of measure.

Solved entries:
1. Cc1ccc(S(=O)(=O)N[C@@H](CC(C)C)C(=O)N[C@H](C(=O)N[C@@H](CCCNC(=N)N)C(=O)CCl)[C@@H](C)O)cc1 [Example 18, Tosyl-L-Leu-L-Thr-L-Arg-CMK] (Tos-Leu-Thr-Arg-CH2Cl) | 60 MU
2. C[C@@H](O)[C@H](NC(=O)[C@@H](N)Cc1c[nH]cn1)C(=O)N[C@@H](CCCNC(=N)N)C(=O)CCl [Example 10, H-L-His-L-Thr-L-Arg-CMK] (H-His-Thr-Arg-CH2Cl) | 54 MU
3. CC(C)C[C@H](N)C(=O)N[C@H](C(=O)N[C@@H](CCCNC(=N)N)C(=O)CCl)[C@@H](C)O [Example 11, H-L-Leu-L-Thr-L-Arg-CMK] (H-Leu-Thr-Arg-CH2Cl) | 68 MU

Measured Ki 5 of CC(=O)N[C@@H](CC(C)C)C(=O)N[C@H](C(=O)N[C@@H](CCCNC(=N)N)C(=O)CCl)[C@@H](C)O [Example 17, Ac-L-Leu-L-Thr-L-Arg-CMK] (Ac-Leu-Thr-Arg-CH2Cl) : 60 MU

For reference, reported Ki 5 for CC(C)C[C@H](NS(=O)(=O)c1cccc2c(N(C)C)cccc12)C(=O)N[C@H](C(=O)N[C@@H](CCCNC(=N)N)C(=O)CCl)[C@@H](C)O [Example 19, Dansyl-L-Leu-L-Thr-L-Arg-CMK] (Dansyl-Leu-Thr-Arg-CH2Cl) stands at 35 MU

Entry under test: C[C@@H](O)[C@H](NC(=O)[C@@H](N)CC(N)=O)C(=O)N[C@@H](CCCNC(=N)N)C(=O)CCl [Example 8, H-L-Asn-L-Thr-L-Arg-CMK] (H-Asn-Thr-Arg-CH2Cl) . Its Ki 5 was 44 MU

Ki 5 for C[C@@H](O)[C@H](NC(=O)[C@@H](N)CC(=O)O)C(=O)N[C@@H](CCCNC(=N)N)C(=O)CCl [Example 9, H-L-Asp-L-Thr-L-Arg-CMK] (H-Asp-Thr-Arg-CH2Cl) is 60 MU

Data point: CC(C)C[C@H](N)C(=O)N1CCC[C@H]1C(=O)N[C@@H](CCCNC(=N)N)C(=O)CCl [Example 21, H-L-Leu-L-Pro-L-Arg-CMK] (H-Leu-Pro-Arg-CH2Cl) ; Ki 5 = 60 MU

Memo: CC(C)C[C@@H](N)C(=O)N[C@H](C(=O)N[C@@H](CCCNC(=N)N)C(=O)CCl)[C@@H](C)O [Example 15, H-D-Leu-L-Thr-L-Arg-CMK] (H-[dL]-Thr-Arg-CH2Cl) , reported Ki 5: 100 MU

The compound listed as CC(C)C[C@H](N)C(=O)N[C@@H](CO)C(=O)N[C@@H](CCCNC(=N)N)C(=O)CCl [Example 20, H-L-Leu-L-Ser-L-Arg-CMK] (H-Leu-Ser-Arg-CH2Cl) shows Ki 5 equal to 60 MU

// Ki 5 value for C[C@@H](O)[C@H](NC(=O)[C@H](N)Cc1ccccc1)C(=O)N[C@@H](CCCNC(=N)N)C(=O)CCl [Example 16, H-D-Phe-L-Thr-L-Arg-CMK] (H-[dF]-Thr-Arg-CH2Cl) : 42 MU

Measured Ki 5, N=C(N)NCCC[C@H](NC(=O)[C@H](CO)NC(=O)[C@@H](N)CC(N)=O)C(=O)CCl [Example 22, H-L-Asn-L-Ser-L-Arg-CMK] (H-Asn-Ser-Arg-CH2Cl) : 60 MU

====

target: factor VII/VIIa in the binary complex with tissue factor (Homo sapiens, UniProt P08709); construct: purified human factor VII (1 nM), purified as described by Fair, D; from tissue; TF endogenous on J82 cells (ATCC HTB1); experiment: linked enzyme chromogenic assay of factor X activation (S2222) with factor VII and TF positive J82 cells; assay type: biochemical; details: P3 side chain of peptide P3-Thr-Arg; one unit = inverse of the molar concentration at 5% inhibition of factor X activation
Sequence (P08709 213-466 limits assumed): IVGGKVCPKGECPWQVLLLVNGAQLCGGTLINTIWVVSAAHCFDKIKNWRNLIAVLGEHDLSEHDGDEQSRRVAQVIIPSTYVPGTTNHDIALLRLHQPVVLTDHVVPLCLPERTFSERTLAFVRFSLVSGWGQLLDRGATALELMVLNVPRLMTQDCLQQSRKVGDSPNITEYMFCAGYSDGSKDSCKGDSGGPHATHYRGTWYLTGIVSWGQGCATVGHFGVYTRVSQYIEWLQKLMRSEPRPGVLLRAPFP
Sequence (P08709 61-212 partner limits assumed): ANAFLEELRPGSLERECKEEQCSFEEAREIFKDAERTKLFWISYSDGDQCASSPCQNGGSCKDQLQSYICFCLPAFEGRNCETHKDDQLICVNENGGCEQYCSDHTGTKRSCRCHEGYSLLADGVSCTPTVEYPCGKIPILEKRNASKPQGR
Sequence (P13726 33-295 partner): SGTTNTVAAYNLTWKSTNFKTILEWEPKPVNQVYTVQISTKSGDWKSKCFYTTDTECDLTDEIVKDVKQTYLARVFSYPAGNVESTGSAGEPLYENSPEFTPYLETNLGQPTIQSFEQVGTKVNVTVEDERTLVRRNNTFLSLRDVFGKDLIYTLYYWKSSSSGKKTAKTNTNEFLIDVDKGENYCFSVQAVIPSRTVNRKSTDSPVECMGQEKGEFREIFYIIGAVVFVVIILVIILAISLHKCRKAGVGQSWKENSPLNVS
Residues, ends and D or L forms follow the SMILES beside them.
measureName: Relative potency Ki 5 (MU)
Give your result in MU as a bare value.

1) C[C@@H](O)[C@H](NC(=O)[C@@H](N)CC(=O)O)C(=O)N[C@@H](CCCNC(=N)N)C(=O)O [Example 2, H-L-Asp-L-Thr-L-Arg] (H-Asp-Thr-Arg-OH) | 4.8
2) C[C@@H](O)[C@H](N)C(=O)N[C@@H](CCCNC(=N)N)C(=O)O [Example 7, H-L-Thr-L-Arg] (H-Thr-Arg-OH) | 2.0
3) C[C@@H](O)[C@H](NC(=O)[C@@H](N)Cc1c[nH]cn1)C(=O)N[C@@H](CCCNC(=N)N)C(=O)O [Example 3, H-L-His-L-Thr-L-Arg] (H-His-Thr-Arg-OH) | 6.2

We next turn to a different compound, shown below.
// Relative potency Ki 5 (MU) value for C[C@@H](O)[C@H](NC(=O)[C@@H](N)CC(N)=O)C(=O)N[C@@H](CCCNC(=N)N)C(=O)O [Example 1, H-L-Asn-L-Thr-L-Arg] (H-Asn-Thr-Arg-OH) : 6.7

====

The following molecules are shown together with reported Relative potency Ki 5 (MU) values.
target: factor VII/VIIa in the binary complex with tissue factor (Homo sapiens, UniProt P08709); construct: purified human factor VII (1 nM), purified as described by Fair, D; from tissue; TF endogenous on J82 cells (ATCC HTB1); assay: linked enzyme chromogenic assay of factor X activation (S2222) with factor VII and TF positive J82 cells; format: biochemical; conditions: P3 side chain of peptide P3-Thr-Arg; one unit = inverse of the molar concentration at 5% inhibition of factor X activation
Residues, ends and D or L forms follow the SMILES beside them.
Give the value, in units of MU, as a plain number.

1. C[C@@H](O)[C@H](NC(=O)[C@@H](N)CCC(N)=O)C(=O)N[C@@H](CCCNC(=N)N)C(=O)O [Example 6, H-L-Gln-L-Thr-L-Arg] (H-Gln-Thr-Arg-OH) | 2.5
2. C[C@@H](O)[C@H](N)C(=O)N[C@H](C(=O)N[C@@H](CCCNC(=N)N)C(=O)O)[C@@H](C)O [Example 5, H-L-Thr-L-Thr-L-Arg] (H-Thr-Thr-Arg-OH) | 2.6

The reported Relative potency Ki 5 (MU) of the molecule CC(C)C[C@H](N)C(=O)N[C@H](C(=O)N[C@@H](CCCNC(=N)N)C(=O)O)[C@@H](C)O [Example 4, H-L-Leu-L-Thr-L-Arg] (H-Leu-Thr-Arg-OH) was 4.5

src = patent US5023236A
